Counter-ions that a name gives are not always drawn.
Listing of entries alongside the reported melting point.

Input: Tell us which melting point value is on record for COc1cc2[nH]c(=O)oc2cc1[C@H]1CC[C@H](N(C)CCCc2ccc(F)cc2)CC1 (as salt: salt) [Example 65]
Output: 239 to 242 °C

* * *

biological target: [3H]ifenprodil binding site, rat forebrain membranes (Rattus norvegicus, UniProt P35439+Q00960); construct: membrane fraction was prepared from frozen adult rat forebrains; tissue Zivic-Miller Laboratories, Inc; experiment: [3H]Ifenprodil binding assay; conditions: 4 nM [3H]-ifenprodil, 2 hours at room temperature
Sequence (Q00960 27-1482, other chains not shown): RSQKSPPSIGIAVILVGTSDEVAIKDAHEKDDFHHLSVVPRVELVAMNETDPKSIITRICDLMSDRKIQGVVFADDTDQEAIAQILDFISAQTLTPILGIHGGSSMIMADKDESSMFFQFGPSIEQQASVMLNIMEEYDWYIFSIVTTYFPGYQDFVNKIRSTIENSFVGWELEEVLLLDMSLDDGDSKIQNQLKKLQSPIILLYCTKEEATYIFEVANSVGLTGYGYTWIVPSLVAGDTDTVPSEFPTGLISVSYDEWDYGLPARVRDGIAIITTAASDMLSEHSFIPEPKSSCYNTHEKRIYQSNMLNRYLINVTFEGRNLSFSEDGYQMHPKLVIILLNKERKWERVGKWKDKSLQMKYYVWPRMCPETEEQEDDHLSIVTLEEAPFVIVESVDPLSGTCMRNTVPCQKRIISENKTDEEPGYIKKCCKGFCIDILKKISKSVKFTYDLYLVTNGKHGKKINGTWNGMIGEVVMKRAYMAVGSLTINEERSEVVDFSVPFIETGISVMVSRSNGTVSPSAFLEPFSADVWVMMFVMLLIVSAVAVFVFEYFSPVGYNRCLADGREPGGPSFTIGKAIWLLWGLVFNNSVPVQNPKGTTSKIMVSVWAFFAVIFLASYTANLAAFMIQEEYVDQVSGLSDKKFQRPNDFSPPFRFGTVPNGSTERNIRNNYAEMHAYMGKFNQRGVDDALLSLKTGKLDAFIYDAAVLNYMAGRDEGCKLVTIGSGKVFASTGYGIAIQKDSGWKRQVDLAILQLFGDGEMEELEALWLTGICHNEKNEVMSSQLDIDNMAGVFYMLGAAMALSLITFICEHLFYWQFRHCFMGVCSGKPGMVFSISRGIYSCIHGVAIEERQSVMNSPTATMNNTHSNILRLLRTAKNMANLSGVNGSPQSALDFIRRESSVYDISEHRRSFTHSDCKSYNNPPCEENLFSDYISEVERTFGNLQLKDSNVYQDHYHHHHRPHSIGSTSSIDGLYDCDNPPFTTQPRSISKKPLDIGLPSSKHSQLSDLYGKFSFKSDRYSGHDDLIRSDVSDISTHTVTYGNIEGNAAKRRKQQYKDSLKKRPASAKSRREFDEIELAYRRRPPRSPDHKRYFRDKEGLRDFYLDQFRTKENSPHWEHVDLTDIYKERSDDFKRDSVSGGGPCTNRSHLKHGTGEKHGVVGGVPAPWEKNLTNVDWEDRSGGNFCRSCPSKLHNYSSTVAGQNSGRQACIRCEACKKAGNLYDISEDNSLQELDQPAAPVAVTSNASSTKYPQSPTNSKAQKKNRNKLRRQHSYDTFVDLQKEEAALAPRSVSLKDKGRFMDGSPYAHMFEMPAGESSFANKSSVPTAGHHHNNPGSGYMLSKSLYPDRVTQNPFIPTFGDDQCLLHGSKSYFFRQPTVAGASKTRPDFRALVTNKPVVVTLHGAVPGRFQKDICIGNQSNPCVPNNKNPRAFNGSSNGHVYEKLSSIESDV
outcome_measure: IC50

Reference set, count: 10
compound	recorded_value
CCN(CCCc1ccc(F)cc1)[C@H]1CC[C@H](c2ccc3[nH]c(=O)oc3c2)CC1	79 nM
CN(CCCc1ccc(F)cc1)[C@H]1CC[C@H](c2ccc3[nH]c(=O)[nH]c3c2)CC1	2 nM
CN(CCCc1ccc(Cl)cc1)[C@H]1CC[C@H](c2ccc3[nH]c(=O)oc3c2)CC1 [Example 38b]	7 nM
CN(CCN(C)[C@H]1CC[C@H](c2ccc3[nH]c(=O)oc3c2)CC1)c1ccccc1	> 1000 nM
CC(C)CN(CCCc1ccc(F)cc1)[C@H]1CC[C@H](c2ccc3[nH]c(=O)oc3c2)CC1	> 1000 nM
CN(CCCc1ccc(F)c(F)c1F)[C@H]1CC[C@H](c2ccc3[nH]c(=O)oc3c2)CC1	5 nM
Cc1ccc(CCCN[C@H]2CC[C@H](c3ccc4[nH]c(=O)oc4c3)CC2)cc1 [Example 13b]	5 nM
O=c1[nH]c2ccc(C3=CCC(NCCCc4ccccc4)CC3)cc2o1 (stereo not drawn)	9 nM
CCN(CCCc1ccc(C(F)(F)F)cc1)[C@H]1CC[C@H](c2ccc3[nH]c(=O)oc3c2)CC1	188 nM
CN(CCCc1ccc(Cl)cc1Cl)[C@H]1CC[C@H](c2ccc3[nH]c(=O)oc3c2)CC1	34 nM

Input: Tell us which IC50 value is on record for O=c1[nH]c2ccc([C@H]3CC[C@H](NCCCc4ccc(F)cc4)CC3)cc2o1
Output: 7 nM

Input: Tell us which IC50 value is on record for O=c1[nH]c2ccc([C@H]3CC[C@H](NCCNc4ccccc4)CC3)cc2o1
Output: 37 nM

Input: Tell us which IC50 value is on record for Cc1cc(F)ccc1CCCN(C)C1CCC(c2ccc3[nH]c(=O)oc3c2)CC1 (stereo in doubt) [Example 43b]
Output: 56 nM

Input: Tell us which IC50 value is on record for CCN([C@H]1CC[C@H](c2ccc3[nH]c(=O)oc3c2)CC1)[C@H](C)CCc1ccccc1
Output: 132 nM

Input: Tell us which IC50 value is on record for NC(=O)CN(CCCc1ccc(F)cc1)[C@H]1CC[C@H](c2ccc3[nH]c(=O)oc3c2)CC1
Output: 152 nM

Input: Tell us which IC50 value is on record for C[C@H](CCc1ccccc1)N[C@H]1CC[C@H](c2ccc3[nH]c(=O)oc3c2)CC1
Output: 15 nM

Input: Tell us which IC50 value is on record for O=c1[nH]c2ccc([C@H]3CC[C@H](NCC[S+]([O-])c4ccccc4)CC3)cc2o1 (stereo partly drawn)
Output: 92 nM

Input: Tell us which IC50 value is on record for NCCN(CCCc1ccc(F)cc1)[C@H]1CC[C@H](c2ccc3[nH]c(=O)oc3c2)CC1
Output: 170 nM

Input: Tell us which IC50 value is on record for CN(CCCc1ccc(F)c(F)c1)[C@H]1CC[C@H](c2ccc3[nH]c(=O)oc3c2)CC1 [Example 40b]
Output: 29 nM

Input: Tell us which IC50 value is on record for CN(CCCc1cc(F)cc(F)c1)[C@H]1CC[C@H](c2ccc3[nH]c(=O)oc3c2)CC1 [Example 39b]
Output: 37 nM

Input: Tell us which IC50 value is on record for CN(CCCC1CCCCC1)[C@H]1CC[C@H](c2ccc3[nH]c(=O)oc3c2)CC1 [Example 49b]
Output: 22 nM

Input: Tell us which IC50 value is on record for O=c1[nH]c2ccc([C@H]3CC[C@H](NCCCc4ccc(C(F)(F)F)cc4)CC3)cc2o1
Output: 128 nM

Input: Tell us which IC50 value is on record for O=c1[nH]c2ccc([C@H]3CC[C@H](N(CCO)CCCc4ccc(F)cc4)CC3)cc2o1
Output: 18 nM

Input: Tell us which IC50 value is on record for CN(CC#Cc1ccccc1)[C@H]1CC[C@H](c2ccc3[nH]c(=O)oc3c2)CC1 [Example 51b]
Output: 550 nM

Source: patent US6794402B2
